- Tested on: Escherichia coli
- assay_details: Antibacterial activity against Escherichia coli W3110
- Type: functional
value_type: inhibition zone (IZ) (mm)
Kindly answer with a numeric value in mm, unit omitted.

CCCCCCCCCCCCCCCCCC(O)(P(=O)(O)O)P(=O)(O)O : 0
O=P(O)(O)C(O)(Cc1ccccc1)P(=O)(O)O : 0
NC[C@H]1O[C@H](O[C@H]2[C@H](O)[C@@H](O[C@H]3O[C@H](CO)[C@@H](O)[C@H](N)[C@H]3O)[C@H](N)C[C@@H]2N)[C@H](O)[C@@H](O)[C@@H]1O [KANAMYCIN] : 21
CCc1cccc(NC(P(=O)(O)O)P(=O)(O)O)c1 : 0
O=P(O)(O)C(Nc1ccccn1)P(=O)(O)O : 7

Below: the item to evaluate.
## Task What measured inhibition zone (IZ) goes with CC1CCCC(C)N1C(P(=O)(O)O)P(=O)(O)O (stereo unspecified) ?
## Result 0

* * *

- System: Escherichia coli
- assay_details: Antibacterial activity against Escherichia coli K12
- Assay type: functional
value_type: MBC (µM)
Give your result in µM as a bare value.

O=CN(O)CCCP(=O)(O)O : 2500
CC1(C)S[C@@H]2[C@H](NC(=O)C(C(=O)O)c3ccccc3)C(=O)N2[C@H]1C(=O)O (some centres undefined) : 20
CN(CCCCc1ccccc1)CCC(O)(P(=O)(O)O)P(=O)(O)O : 1250

Attention now shifts to the item below.
## Task I would be grateful if you could share the reported MBC for O=C(O)c1cn(C2CC2)c2cc(N3CCNCC3)c(F)cc2c1=O .
## Result 0.076

* * *

- System: Escherichia coli
- assay_details: Antibacterial activity against Escherichia coli W3110
- Format: functional
# inhibition zone (IZ) per entry
Provide only the numeric value, understood in mm.

Please review the following examples before continuing.
CCCCc1ccc(NC(P(=O)(O)O)P(=O)(O)O)cc1 : 0
CC1CCCCN1C(P(=O)(O)O)P(=O)(O)O (configuration not stated) : 0
O=P(O)(O)C(Nc1ncc(Br)cc1Br)P(=O)(O)O : 0
O=P(O)(O)C(O)(Cn1cnc2ccccc21)P(=O)(O)O : 14
O=P(O)(O)C(O)(CCc1cccnc1)P(=O)(O)O : 0

## Task Hi! What's the reported inhibition zone (IZ) for Cc1cc(Br)cnc1NC(P(=O)(O)O)P(=O)(O)O on Escherichia coli?
## Result 0

* * *

- Test system: Escherichia coli
- assay_details: Antibacterial activity against Escherichia coli W3110
- Type: functional
value_type: inhibition zone (IZ) (mm)
Output spec: scalar in mm, unitless text.

Before answering, review these 4 worked examples.
O=P(O)(O)CC(c1cccnc1)P(=O)(O)O (stereo not given) : 0
CN(C)[C@@H]1C(O)=C(C(N)=O)C(=O)[C@@]2(O)C(O)=C3C(=O)c4c(O)cccc4[C@@](C)(O)[C@H]3C[C@@H]12 : 21
O=P(O)(O)C(Nc1ccc(Cl)nc1)P(=O)(O)O : 0
CC1CC(C)CN(C(P(=O)(O)O)P(=O)(O)O)C1 (stereo not given) : 0

Next compound, please.
## Task If you can, please state the reported inhibition zone (IZ) value of CCCCCCc1ccc(NC(P(=O)(O)O)P(=O)(O)O)cc1 .
## Result 0

* * *

- System: Escherichia coli
- assay_details: Antibacterial activity against Escherichia coli W3110
- Type: functional
Parameter inhibition zone (IZ): see the listing below.
Only the number, expressed in mm, is required.

Guide cases for inhibition zone (IZ), answers given:
Cc1cccc(NC(P(=O)(O)O)P(=O)(O)O)n1 : 7
CCC(C)NC(P(=O)(O)O)P(=O)(O)O (stereo unspecified) : 0
O=P(O)(O)C(O)(Cc1cccc(Cl)c1)P(=O)(O)O : 8
CCCCNC(P(=O)(O)O)P(=O)(O)O : 0
CCCCCCCCC(O)(P(=O)(O)O)P(=O)(O)O : 9
O=P(O)(O)C(O)(C1CCC1)P(=O)(O)O : 0
CCn1c2ccccc2c2cc(NC(P(=O)(O)O)P(=O)(O)O)ccc21 : 0
O=P(O)(O)C(O)(CSc1ccncc1)P(=O)(O)O : 0

## Task Requested field: inhibition zone (IZ). Item: O.O=P(O)(O)C(O)(Cn1ccnc1)P(=O)(O)O
## Result 0

## Task What about this compound? CN(CCOc1ccccc1)CCC(O)(P(=O)(O)O)P(=O)(O)O
## Result 11

## Task And then O=P(O)(O)C(O)(Cc1cccc(F)c1)P(=O)(O)O , what is it?
## Result 0

Source: ChEMBL document CHEMBL1138862
